Tested on: Staphylococcus sp.
Method notes: In vitro antibacterial evaluation: minimum inhibitory concentration (MIC), broth dilution method
Assay type: cell-based
Assay setup: strain GC 4542; broth dilution, 18 hours at 35° C.
Here, each record is paired with measured MIC Staphylococcus aureus (GC 4542) data.
Reply numerically in µg/mL, unit not repeated.

Compound | Endpoint value
CC(C)=CCCC(C)C1OCC2OC(OC3C(CO)OC(Oc4ccc(CC5NC(=O)C(C(C)c6ccccc6)NC(=O)CNC(=O)C(CO)NC(=O)C(C(O)C6CNC(=N)N6C6OC(CO)C(O)C(O)C6O)NC(=O)C(C(O)C6CNC(=N)N6)NC5=O)cc4)C(O)C3O)C(O)C(O)C2O1 (stereo not drawn) | 32

Prompt: // Input: CC(c1ccccc1)C1NC(=O)CNC(=O)C(CO)NC(=O)C(C(O)C2CNC(=N)N2C2OC(CO)C(O)C(O)C2O)NC(=O)C(C(O)C2CNC(=N)N2)NC(=O)C(Cc2ccc(OC3OC(CO)C(OC4OC5COC(C6CC=CCC6)OC5C(O)C4O)C(O)C3O)cc2)NC1=O (stereo not drawn) . Output its MIC Staphylococcus aureus (GC 4542) only.
Completion: 0.5

Prompt: // Input: CC(c1ccccc1)C1NC(=O)CNC(=O)C(CO)NC(=O)C(C(O)C2CNC(=N)N2C2OC(CO)C(O)C(O)C2O)NC(=O)C(C(O)C2CNC(=N)N2)NC(=O)C(Cc2ccc(OC3OC(CO)C(OC4OC5COC(c6ccc(S(C)(=O)=O)cc6)OC5C(O)C4O)C(O)C3O)cc2)NC1=O (stereo not drawn) . Output its MIC Staphylococcus aureus (GC 4542) only.
Completion: 32

---

Here, each record is paired with measured MIC Escherichi coli (GC 4560) data.
Tested on: Escherichia coli
Method notes: In vitro antibacterial evaluation: minimum inhibitory concentration (MIC), broth dilution method
Assay type: cell-based
Assay setup: strain GC 4560
Reply numerically in µg/mL, unit not repeated.

Prompt: // Input: COc1cc(C2OCC3OC(OC4C(CO)OC(Oc5ccc(CC6NC(=O)C(C(C)c7ccccc7)NC(=O)CNC(=O)C(CO)NC(=O)C(C(O)C7CNC(=N)N7C7OC(CO)C(O)C(O)C7O)NC(=O)C(C(O)C7CNC(=N)N7)NC6=O)cc5)C(O)C4O)C(O)C(O)C3O2)cc([N+](=O)[O-])c1O (stereo not drawn) . Output its MIC Escherichi coli (GC 4560) only.
Completion: 8

Prompt: // Input: COc1cccc(C2OC3C(OC4C(CO)OC(Oc5ccc(CC6NC(=O)C(C(C)c7ccccc7)NC(=O)CNC(=O)C(CO)NC(=O)C(C(O)C7CNC(=N)N7C7OC(CO)C(O)C(O)C7O)NC(=O)C(C(O)C7CNC(=N)N7)NC6=O)cc5)C(O)C4O)OC(CO)C(O)C3O2)c1 (single isomer, unassigned) [Example 137b] . Output its MIC Escherichi coli (GC 4560) only.
Completion: 4

Prompt: // Input: CC(c1ccccc1)C1NC(=O)CNC(=O)C(CO)NC(=O)C(C(O)C2CNC(=N)N2C2OC(CO)C(O)C(O)C2O)NC(=O)C(C(O)C2CNC(=N)N2)NC(=O)C(Cc2ccc(OC3OC(CO)C(OC4OC5COC(c6cc7c(cc6Cl)OCO7)OC5C(O)C4O)C(O)C3O)cc2)NC1=O (stereo not drawn) . Output its MIC Escherichi coli (GC 4560) only.
Completion: 1

Prompt: // Input: Cc1ccc(Oc2ccc(C3OCC4OC(OC5C(CO)OC(Oc6ccc(CC7NC(=O)C(C(C)c8ccccc8)NC(=O)CNC(=O)C(CO)NC(=O)C(C(O)C8CNC(=N)N8C8OC(CO)C(O)C(O)C8O)NC(=O)C(C(O)C8CNC(=N)N8)NC7=O)cc6)C(O)C5O)C(O)C(O)C4O3)cc2)cc1 (stereo not drawn) . Output its MIC Escherichi coli (GC 4560) only.
Completion: 4

Prompt: // Input: COc1ccc(Oc2cccc(C3OCC4OC(OC5C(CO)OC(Oc6ccc(CC7NC(=O)C(C(C)c8ccccc8)NC(=O)CNC(=O)C(CO)NC(=O)C(C(O)C8CNC(=N)N8C8OC(CO)C(O)C(O)C8O)NC(=O)C(C(O)C8CNC(=N)N8)NC7=O)cc6)C(O)C5O)C(O)C(O)C4O3)c2)cc1 (stereo not drawn) . Output its MIC Escherichi coli (GC 4560) only.
Completion: 2

Prompt: // Input: Cc1cc(C2OCC3OC(OC4C(CO)OC(Oc5ccc(CC6NC(=O)C(C(C)c7ccccc7)NC(=O)CNC(=O)C(CO)NC(=O)C(C(O)C7CNC(=N)N7C7OC(CO)C(O)C(O)C7O)NC(=O)C(C(O)C7CNC(=N)N7)NC6=O)cc5)C(O)C4O)C(O)C(O)C3O2)ccc1[N+](=O)[O-] (stereo not drawn) . Output its MIC Escherichi coli (GC 4560) only.
Completion: 2

Prompt: // Input: CSc1ccc(C2OCC3OC(OC4C(CO)OC(Oc5ccc(CC6NC(=O)C(C(C)c7ccccc7)NC(=O)CNC(=O)C(CO)NC(=O)C(C(O)C7CNC(=N)N7C7OC(CO)C(O)C(O)C7O)NC(=O)C(C(O)C7CNC(=N)N7)NC6=O)cc5)C(O)C4O)C(O)C(O)C3O2)cc1[N+](=O)[O-] (stereo not drawn) . Output its MIC Escherichi coli (GC 4560) only.
Completion: 0.5

Prompt: // Input: CCOc1cc(C2OCC3OC(OC4C(CO)OC(Oc5ccc(CC6NC(=O)C(C(C)c7ccccc7)NC(=O)CNC(=O)C(CO)NC(=O)C(C(O)C7CNC(=N)N7C7OC(CO)C(O)C(O)C7O)NC(=O)C(C(O)C7CNC(=N)N7)NC6=O)cc5)C(O)C4O)C(O)C(O)C3O2)ccc1[N+](=O)[O-] (stereo not drawn) . Output its MIC Escherichi coli (GC 4560) only.
Completion: 8
